- Test system: 2,985 participants free of prevalent diabetes at baseline
- Experimental Protocol: Cardiovascular Health Study: plasma phospholipid fatty acids and incident diabetes mellitus (Cox proportional-hazards)
- Assay type: in vivo, human
- Details: per each higher SD of the plasma phospholipid fatty acid; multivariable-adjusted (covariates as in Table 4)
- Method: Plasma phospholipid fatty acids, anthropometry, blood lipids, inflammatory markers, and glucose-insulin levels were measured at baseline using standardized methods. […] Relationships between phospholipid fatty acids were evaluated using Spearman correlation. Trans-palmitoleate levels were evaluated in sex-specific quintiles as indicator variables and continuously per SD difference. […]
Assay Endpoint: RR of diabetes per SD

>>> value_measured("CCCCCCCCCCCCCCCCC(=O)O [17:0, reference compound]")
0.98
>>> value_measured("CCCCCC/C=C/CCCCCCCCCC(=O)O [Vaccenic acid, vaccenic acid, reference compound]")
0.89
>>> value_measured("CCCCCC/C=C/CCCCCCCC(=O)O [trans-palmitoleate, trans-C16:1n7-palmitoleic acid]")
0.72
>>> value_measured("CCCCCCCCCCCCCCC(=O)O [15:0, pentadecanoic acid, reference compound]")
1.01
